Reference source: PubChem BioAssay AID1159580

Reported normalized growth values are given for each entry in this list.
assay: chemical genetic growth profiling, strain panel (AID 1159580);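 further: tested at 20 µM; growth read once vehicle control cultures reached saturation at 30 °C; 1 = growth at the plate median or of vehicle wells; lower values mean less growth of the strain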; conditions: S. cerevisiae deletion strains, growth OD, locus YOR316C, strain cot1, active compounds read low
About 2,000 (36%) of roughly 5,500 compounds were called active. Inconclusive results (about 18%) are left out. The list shows a part of the results.
endpoint_name: normalized growth

INSERT INTO assay_data (molecule, value_observed) VALUES
  ('O=c1oc2c(O)c(O)cc3c(=O)oc4c(O)c(O)cc1c4c23', 0.852),
  ('COc1ccc(C(=O)c2ccccc2)c(O)c1O', 0.948),
  ('NCCc1c[nH]c2ccccc12', 0.995),
  ('COc1cc2c(cc1OC)-c1c(oc3c4c(ccc3c1=O)OC(C(C)C)C4)CO2 (stereo unspecified)', 0.97),
  ('CC[C@H]1CN2CCc3cc(OC)c(OC)cc3C2C[C@@H]1CC1NCCc2cc(OC)c(OC)cc21 (stereo partly specified)', 0.992),
  ('O=C(O)[C@H](O)[C@@](O)(Cc1ccc(O)cc1)C(=O)O', 1),
  ('CCOc1ccc(C(=O)c2ccc(O)c(O)c2O)cc1', 0.983),
  ('COc1cc2c(cc1OC)[C@@H]1C(=O)c3ccc4c(c3O[C@@H]1CO2)CC(C(C)C)O4 (stereo partly specified)', 0.999),
  ('CCOc1ccc(NC(C)=O)cc1', 0.983),
  ('COc1ccc(C(=O)c2ccc(O)cc2)c(O)c1O', 0.971),
  ('CC[C@@H](CO)NC(=O)[C@@H]1C=C2c3cccc4[nH]cc(c34)C[C@H]2N(C)C1', 0.987);
